Test system: SW-620 colon
Experiment: NCI tumour cell line growth inhibition, 48 h
measured attribute: TGI

// TGI lookup, compound = COc1ccc(Cc2cc(OC)c(OC)c(OC)c2)cc1 , result: > 100 µM

// TGI lookup, compound = O=CC1CCC=CC1NC(=O)OCc1ccccc1 (stereo unspecified) , result: > 100 µM

// TGI lookup, compound = Cc1ccc(S(=O)(=O)OCC(=O)Nc2ccc(C(=O)O)c(O)c2)cc1 , result: 145 µM

// TGI lookup, compound = CCC(CC)c1cc(N[C@H]2CC[C@H](N)C2)n2nccc2n1 , result: > 100 µM

// TGI lookup, compound = CC(=O)c1cc(CC2Cc3cc4c(cc3C2=O)CCC4)cc2c1CCC2 (stereo unspecified) , result: > 100 µM

// TGI lookup, compound = COC(=O)CN=C1NC(=S)N(Cc2ccc(OC)cc2)C12CCCC2 , result: > 100 µM

// TGI lookup, compound = CN(C)c1ccc(/C=C(\C#N)c2ccccc2)cc1 , result: > 100 µM

// TGI lookup, compound = O=C1CNc2cc(N3CCOCC3)ccc2N1 , result: > 100 µM

// TGI lookup, compound = O=S(=O)(Nc1nccs1)c1ccc([As](=O)(O)O)cc1 , result: > 100 µM

// TGI lookup, compound = CC(C)NC(=O)OCc1nnn2c1CCC2 , result: > 100 µM

// TGI lookup, compound = CN1CCN(Cc2ccc(NC(=O)c3cncc(C#Cc4c(N)ncc5c(F)cccc45)c3)cc2C(F)(F)F)CC1 , result: 1.16 µM

###

System: SK-MEL-2 melanoma
Assay: NCI tumour cell line growth inhibition, 48 h
measured attribute: TGI

// TGI lookup, molecule = COC(=O)CN=C1NC(=S)N(Cc2ccc(OC)cc2)C12CCCC2 , result: > 100 µM

// TGI lookup, molecule = CN1CCN(Cc2ccc(NC(=O)c3cncc(C#Cc4c(N)ncc5c(F)cccc45)c3)cc2C(F)(F)F)CC1 , result: 1.93 µM

// TGI lookup, molecule = COc1ccc(C[n+]2cccc(O)c2)cc1 , result: > 100 µM

// TGI lookup, molecule = COc1ccc(C2CC(c3ccccc3)=NN2C(=O)c2cc(OC)c(OC)c(OC)c2)cc1O (stereo not drawn) , result: > 42 µM

// TGI lookup, molecule = CS(=O)(=O)O[C@H]1C(=O)N(c2cc3c4ccccc4ccc3c3ccccc23)[C@@H]1c1ccccn1 , result: > 100 µM

// TGI lookup, molecule = CCSc1nc(NC(C)c2ccccc2)c2cnn(CO)c2n1 (stereo not drawn) , result: > 100 µM

// TGI lookup, molecule = CC(C)(C)[Si](C)(C)OC1[C@@H](O[Si](C)(C)C(C)(C)C)[C@@H](CNC(=O)NC(=O)NC(=O)CCl)O[C@H]1n1cnc2c(NC(=O)Nc3ccccc3)ncnc21 (stereo partly drawn) , result: 17.6 µM

// TGI lookup, molecule = OCC(O)C(O)C(O)C(O)CNCCO/N=C1/C(c2c(O)[nH]c3ccccc23)=Nc2ccccc21 (stereo not drawn) , result: 15.7 µM

// TGI lookup, molecule = CCC1=C[C@@H]2CN(C1)Cc1c([nH]c3ccccc13)[C@@](C(=O)OC)(c1cc3c(cc1OC)N(C)[C@H]1[C@@](O)(C(=O)OC)[C@H](OC(C)=O)[C@]4(CC)C=CCN5CC[C@]31[C@@H]54)C2 , result: 9.23 µM

// TGI lookup, molecule = CCOC(=O)NC(=O)c1cn(CCCCCCCCCCC(=O)NCCCN2CCN(CCCNC(=O)CCCCCCCCCCn3cc(C(=O)NC(=O)OCC)c(=O)[nH]c3=O)CC2)c(=O)[nH]c1=O , result: > 100 µM

// TGI lookup, molecule = Cc1ccc(NC(=O)CCc2nnc3s/c(=C\c4cccc([N+](=O)[O-])c4)c(=O)n23)cc1 , result: > 100 µM

// TGI lookup, molecule = O=c1sc(Nc2ccc3ccccc3c2Cl)nc2ccccc12 , result: > 100 µM

// TGI lookup, molecule = CCc1cccc(C)c1N1C(=O)C(=O)C(c2nc3ccccc3o2)/C(=N/NC(=S)NN)C1=O (stereo not drawn) , result: > 100 µM

// TGI lookup, molecule = O=C(O)C1CC(C2CCCCN2)CN2CCCCC12 (stereo not drawn) , result: > 100 µM

// TGI lookup, molecule = COc1ccc(CN2C(=O)/C(=C\C(=O)c3ccc(OCCN4CCCC4)cc3)c3ccccc32)cc1 , result: 37.4 µM

// TGI lookup, molecule = COc1ccc(Cc2cc(OC)c(OC)c(OC)c2)cc1 , result: 41.4 µM

// TGI lookup, molecule = CC(=O)Nc1ncc2c(n1)-c1ccccc1OC2c1ccccc1 (stereo not drawn) , result: > 100 µM

// TGI lookup, molecule = CC(C)C1CC(CO)(CNc2nc(N)nc(Cl)c2/C=N\O)C1 (stereo not drawn) , result: 26.5 µM
